molecular target: AtSPT-ORM1 complex (LCB1, LCB2a, SPTssa, ORM1) (Arabidopsis thaliana, UniProt Q94IB8+Q9C5I0+Q9LSZ9, Q9C5I0:S67R); construct: full-length codon-optimized cDNAs; N-terminal Flag on SPTssa, other chains untagged; HEK293F, GDN; dimer of 1:1:1:1 protomers; endogenous ceramide copurifies; with Long chain base biosynthesis protein 1; Serine palmitoyltransferase small subunit A; assay: SPT activity, DTNB detection of CoA-SH release, […] nm
Sequence (Q9LSZ9 whole entry): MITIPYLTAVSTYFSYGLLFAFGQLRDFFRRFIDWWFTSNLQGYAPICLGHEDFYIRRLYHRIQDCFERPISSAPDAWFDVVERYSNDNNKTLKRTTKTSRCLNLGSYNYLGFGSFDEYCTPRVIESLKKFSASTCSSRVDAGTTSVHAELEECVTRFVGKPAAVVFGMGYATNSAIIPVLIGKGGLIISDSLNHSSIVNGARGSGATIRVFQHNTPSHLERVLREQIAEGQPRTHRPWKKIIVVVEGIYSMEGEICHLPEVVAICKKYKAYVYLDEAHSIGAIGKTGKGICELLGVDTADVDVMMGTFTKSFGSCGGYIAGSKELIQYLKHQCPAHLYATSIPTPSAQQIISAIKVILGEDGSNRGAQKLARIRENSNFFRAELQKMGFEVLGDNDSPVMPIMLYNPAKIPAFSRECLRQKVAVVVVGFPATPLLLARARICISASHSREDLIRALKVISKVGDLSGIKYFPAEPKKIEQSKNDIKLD
Sequence (Q9C5I0 1-157 S67R): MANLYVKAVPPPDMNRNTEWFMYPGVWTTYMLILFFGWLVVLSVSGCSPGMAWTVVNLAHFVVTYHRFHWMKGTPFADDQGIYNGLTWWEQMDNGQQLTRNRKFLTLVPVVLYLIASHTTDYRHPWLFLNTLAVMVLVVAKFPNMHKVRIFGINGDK
Sequence (Q94IB8 whole entry): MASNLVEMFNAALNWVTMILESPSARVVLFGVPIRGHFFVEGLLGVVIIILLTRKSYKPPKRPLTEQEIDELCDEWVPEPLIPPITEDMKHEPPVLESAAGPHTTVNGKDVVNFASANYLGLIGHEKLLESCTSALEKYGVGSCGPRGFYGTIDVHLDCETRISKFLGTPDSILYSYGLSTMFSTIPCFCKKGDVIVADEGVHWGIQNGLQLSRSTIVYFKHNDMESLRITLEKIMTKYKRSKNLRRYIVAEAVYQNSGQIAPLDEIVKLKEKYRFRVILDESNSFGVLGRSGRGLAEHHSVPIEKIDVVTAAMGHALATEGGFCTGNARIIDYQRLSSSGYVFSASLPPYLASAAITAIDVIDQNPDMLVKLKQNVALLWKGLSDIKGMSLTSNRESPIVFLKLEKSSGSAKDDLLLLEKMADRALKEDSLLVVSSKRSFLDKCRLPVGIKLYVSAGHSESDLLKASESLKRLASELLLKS
Sequence (A8MSB8 1-56 partner): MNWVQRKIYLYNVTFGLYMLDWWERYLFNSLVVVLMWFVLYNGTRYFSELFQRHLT
pIC50: −log10 of the molar value.
readout-kind: pIC50

- CCCCCCCCCCCCCC[C@@H](O)[C@@H](O)[C@H](CO)NC(=O)CCCCC [C6-phytoceramide]: 5.90
